experiment.description: Terminal half life in CD1 mouse at 0.5 mg/kg, iv
Type: ADME, organism-based
reported.conditions: in vivo, read-out: beta t1/2 (converted)
property.label: half-life (h)

* Cc1ncc(-c2nc3c(OC4(C)CC4)nc(Nc4cnn(C5CCN(C)CC5)c4)nc3cc2F)cn1 | 4.2

----------
tested.system: Interleukin-1 receptor-associated kinase 4 (Homo sapiens)
Sequence (Q9NWZ3 whole entry): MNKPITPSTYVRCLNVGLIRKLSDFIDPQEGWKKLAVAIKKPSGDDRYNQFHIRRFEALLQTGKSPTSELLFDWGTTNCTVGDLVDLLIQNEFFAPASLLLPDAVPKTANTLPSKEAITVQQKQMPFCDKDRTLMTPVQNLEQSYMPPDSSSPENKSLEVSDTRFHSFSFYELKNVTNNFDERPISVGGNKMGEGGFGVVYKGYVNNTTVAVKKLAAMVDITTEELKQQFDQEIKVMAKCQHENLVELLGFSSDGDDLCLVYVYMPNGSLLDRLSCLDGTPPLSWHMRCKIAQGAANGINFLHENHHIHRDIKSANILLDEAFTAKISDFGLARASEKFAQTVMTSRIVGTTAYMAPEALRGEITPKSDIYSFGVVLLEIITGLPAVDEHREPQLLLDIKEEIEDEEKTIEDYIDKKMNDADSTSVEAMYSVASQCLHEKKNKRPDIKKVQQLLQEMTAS
experiment.description: Inhibition of IRAK4 (unknown origin) phosphorylation by cell based assay
pIC50: −log10 of the molar value.
Reported values of pIC50 for individual entries
property.label: pIC50

* Cc1ccc2nc(Nc3cnn(C4CCN(C)CC4)c3)nc(OC3(C)CC3)c2n1 | 7.00
* Cc1ncc(-c2nc3c(OC4(C)CC4)nc(Nc4cnn(C5CC6(C5)CN(C)C6)c4)nc3cc2F)cn1 | 6.66
* CN1CCC(n2cc(Nc3nc(OC4(C)CC4)c4nc(-c5cnn(C)c5)ccc4n3)cn2)CC1 | 6.68
* Cn1cc(Nc2nc(NC3CC3)c3nc(CC#N)ccc3n2)cn1 | 6.31
* Cn1cc(Nc2nc(N[C@H]3CCOC3)c3nc(CC#N)ccc3n2)cn1 | 5.59
* CN1CCC(n2cc(Nc3nc(OC4(C)CC4)c4nc(-c5cncnc5)c(F)cc4n3)cn2)CC1 | 7.54
* CN1CCC(n2cc(Nc3nc(OC4(C)CC4)c4nc(-c5cncnc5)ccc4n3)cn2)CC1 | 7.62
* COC(=O)N1CCN([C@H]2CC[C@H](Nc3nc(Nc4cnn(C)c4)nc4ccc(CC#N)nc34)CC2)CC1 | 6.77
* CN1CCC(n2cc(Nc3nc(OC4(C)CC4)c4nc(C(=O)N(C)C)ccc4n3)cn2)CC1 | 6.17
* Cc1ncc(-c2nc3c(OC4(C)CC4)nc(Nc4cnn([C@@H]5C[C@H]6C[C@@H]5CN6C)c4)nc3cc2F)cn1 | 5.96
* CC(C)Nc1nc(Nc2cnn(C)c2)nc2ccc(CC#N)nc12 | 6.24
* CN1CCC(n2cc(Nc3nc(OC4(C)CC4)c4nc(-c5ccnnc5)ccc4n3)cn2)CC1 | 6.89
* Cn1cc(Nc2nc(NC3(C)CC3)c3nc(CC#N)ccc3n2)cn1 | 6.96
* N#CCc1ccc2nc(Nc3cnn(C4CCOCC4)c3)nc(NC3CCOCC3)c2n1 | 6.24
* Cc1ncc(-c2nc3c(OC4(C)CC4)nc(Nc4cnn(C5CCN(C)CC5)c4)nc3cc2F)cn1 | 6.96
